# Experimental Details: Hemolytic activity in human RBC measured after 1 hr
# Format: toxicity, cell-based, Erythrocyte
# Condition Notes: red blood cells (erythrocytes)
Overview of reported HC50 at 1 h across a group of molecules:
Your answer is read as µM, so omit the unit and give the number.

Query Smiles: CNCC(=O)N[C@@H]1[C@H](O)[C@H](O[C@H]2/C=C/C=C/C=C/C=C/C=C/C=C/C=C/[C@H](C)[C@@H](O)[C@@H](C)[C@H](C)OC(=O)C[C@H](O)C[C@H](O)CC[C@@H](O)[C@H](O)C[C@H](O)C[C@]3(O)C[C@H](O)[C@@H](C(=O)N(C)CCCO)[C@H](C2)O3)O[C@H](C)[C@H]1O
HC50 at 1 h (µM): 9.52
--
Query Smiles: CNCC(=O)N[C@@H]1[C@H](O)[C@H](O[C@H]2/C=C/C=C/C=C/C=C/C=C/C=C/C=C/[C@H](C)[C@@H](O)[C@@H](C)[C@H](C)OC(=O)C[C@H](O)C[C@H](O)CC[C@@H](O)[C@H](O)C[C@H](O)C[C@]3(O)C[C@H](O)[C@@H](C(=O)N4CCN(CC(C)(C)O)CC4)[C@H](C2)O3)O[C@H](C)[C@H]1O
HC50 at 1 h (µM): 27.7

Consider the record given below.
Query block: I'd like to know its HC50 at 1 h. The molecule in question is `CNCC(=O)N[C@@H]1[C@H](O)[C@H](O[C@H]2/C=C/C=C/C=C/C=C/C=C/C=C/C=C/[C@H](C)[C@@H](O)[C@@H](C)[C@H](C)OC(=O)C[C@H](O)C[C@H](O)CC[C@@H](O)[C@H](O)C[C@H](O)C[C@]3(O)C[C@H](O)[C@@H](C(=O)N4CCC(O)CC4)[C@H](C2)O3)O[C@H](C)[C@H]1O`
Result block: 6.3

---

# Experimental Details: Observed MRT infinity in ICR (CD-1) mouse at 1 mg/kg, iv measured upto 24 hrs
# Format: ADME, organism-based
# Condition Notes: in vivo
Listing: MRT inf of selected molecules
Reply with the number, then its unit.

Query Smiles: C[C@@H]1[C@H](O)[C@@H](C)/C=C/C=C/C=C/C=C/C=C/C=C/C=C/[C@H](O[C@@H]2O[C@H](C)[C@@H](O)[C@H](N)[C@@H]2O)C[C@@H]2O[C@](O)(C[C@@H](O)C[C@@H](O)[C@H](O)CC[C@@H](O)C[C@@H](O)CC(=O)O[C@H]1C)C[C@H](O)[C@H]2C(=O)NCCN
MRT inf: 25.3 h

Query Smiles: C[C@@H]1[C@H](O)[C@@H](C)/C=C/C=C/C=C/C=C/C=C/C=C/C=C/[C@H](O[C@@H]2O[C@H](C)[C@@H](O)[C@H](NC(=O)CCN)[C@@H]2O)C[C@@H]2O[C@](O)(C[C@@H](O)C[C@@H](O)[C@H](O)CC[C@@H](O)C[C@@H](O)CC(=O)O[C@H]1C)C[C@H](O)[C@H]2C(=O)N1CCN(CCO)CC1
MRT inf: 15.3 h

// next item, MRT inf requested
Query block: Given the molecule `C[C@@H]1[C@H](O)[C@@H](C)/C=C/C=C/C=C/C=C/C=C/C=C/C=C/[C@H](O[C@@H]2O[C@H](C)[C@@H](O)[C@H](NC(=O)CN)[C@@H]2O)C[C@@H]2O[C@](O)(C[C@@H](O)C[C@@H](O)[C@H](O)CC[C@@H](O)C[C@@H](O)CC(=O)O[C@H]1C)C[C@H](O)[C@H]2C(=O)NCCN` , what is its reported MRT inf?
Result block: 24.9 h

---

Catalogue of AUC(0-inf) values
# Experimental Details: Observed AUC infinity in ICR (CD-1) mouse at 1 mg/kg, iv measured upto 24 hrs
# Format: ADME, organism-based
# Parameters: dose 1 mg/kg, time < 24 hrs, route iv
# Condition Notes: ICR (CD-1), in vivo
I only need the number, in ng·h/mL, no unit after it.

Query block: Fill in the blank: the reported AUC(0-inf) of `C[C@@H]1[C@H](O)[C@@H](C)/C=C/C=C/C=C/C=C/C=C/C=C/C=C/[C@H](O[C@@H]2O[C@H](C)[C@@H](O)[C@H](N)[C@@H]2O)C[C@@H]2O[C@](O)(C[C@@H](O)C[C@@H](O)[C@H](O)CC[C@@H](O)C[C@@H](O)CC(=O)O[C@H]1C)C[C@H](O)[C@H]2C(=O)NCCN` is ____.
Result block: 18900

Query block: Do the same for `C[C@@H]1[C@H](O)[C@@H](C)/C=C/C=C/C=C/C=C/C=C/C=C/C=C/[C@H](O[C@@H]2O[C@H](C)[C@@H](O)[C@H](NC(=O)CCN)[C@@H]2O)C[C@@H]2O[C@](O)(C[C@@H](O)C[C@@H](O)[C@H](O)CC[C@@H](O)C[C@@H](O)CC(=O)O[C@H]1C)C[C@H](O)[C@H]2C(=O)N1CCN(CCO)CC1` please
Result block: 6210

---

# System: Pichia kudriavzevii
# Experimental Details: Antifungal activity against Candida krusei ATCC 6258 assessed as inhibition of fungal growth measured after 48 hrs by CLSI based agar dilution method
# Assay type: functional
Outcome Measure: MIC (µg/mL)
Write it as a number; the unit µg/mL goes unstated.

Query Smiles: CNCC(=O)N[C@@H]1[C@H](O)[C@H](O[C@H]2/C=C/C=C/C=C/C=C/C=C/C=C/C=C/[C@H](C)[C@@H](O)[C@@H](C)[C@H](C)OC(=O)C[C@H](O)C[C@H](O)CC[C@@H](O)[C@H](O)C[C@H](O)C[C@]3(O)C[C@H](O)[C@@H](C(=O)N4CCN(CCN(C)C)CC4)[C@H](C2)O3)O[C@H](C)[C@H]1O
Outcome Measure: MIC
Measured: 4

Query block: Requested field: MIC. Item: `CNCC(=O)N[C@@H]1[C@H](O)[C@H](O[C@H]2/C=C/C=C/C=C/C=C/C=C/C=C/C=C/[C@H](C)[C@@H](O)[C@@H](C)[C@H](C)OC(=O)C[C@H](O)C[C@H](O)CC[C@@H](O)[C@H](O)C[C@H](O)C[C@]3(O)C[C@H](O)[C@@H](C(=O)N4CCN(C(=O)c5ccncn5)CC4)[C@H](C2)O3)O[C@H](C)[C@H]1O`
Result block: 16

---

Reported HC50 at 1 h is given for each of the following compounds.
# Experimental Details: Hemolytic activity in human RBC measured after 1 hr
# Assay type: toxicity, cell-based, Erythrocyte
# Condition Notes: red blood cells (erythrocytes)

Answered examples (2):
Query Smiles: CC(=O)NNC(=O)[C@H]1[C@@H]2C[C@@H](O[C@@H]3O[C@H](C)[C@@H](O)[C@H](N)[C@@H]3O)/C=C/C=C/C=C/C=C/C=C/C=C/C=C/[C@H](C)[C@@H](O)[C@@H](C)[C@H](C)OC(=O)C[C@H](O)C[C@H](O)CC[C@@H](O)[C@H](O)C[C@H](O)C[C@](O)(C[C@@H]1O)O2
HC50 at 1 h: 5.61 µM
//
Query Smiles: CNCC(=O)N[C@@H]1[C@H](O)[C@H](O[C@H]2/C=C/C=C/C=C/C=C/C=C/C=C/C=C/[C@H](C)[C@@H](O)[C@@H](C)[C@H](C)OC(=O)C[C@H](O)C[C@H](O)CC[C@@H](O)[C@H](O)C[C@H](O)C[C@]3(O)C[C@H](O)[C@@H](C(=O)N4CCN(CCO)CC4)[C@H](C2)O3)O[C@H](C)[C@H]1O
HC50 at 1 h: 15.1 µM

Query block: Recorded HC50 at 1 h of `C[C@@H]1[C@H](O)[C@@H](C)/C=C/C=C/C=C/C=C/C=C/C=C/C=C/[C@H](O[C@@H]2O[C@H](C)[C@@H](O)[C@H](N)[C@@H]2O)C[C@@H]2O[C@](O)(C[C@@H](O)C[C@@H](O)[C@H](O)CC[C@@H](O)C[C@@H](O)CC(=O)O[C@H]1C)C[C@H](O)[C@H]2C(=O)O` , please.
Result block: 4.13 µM

---

# HC50 at 1 h annotations
# Experimental Details: Hemolytic activity in human RBC measured after 1 hr
# Type: toxicity, cell-based, Erythrocyte
# Condition Notes: red blood cells (erythrocytes)

Query Smiles: CNCC(=O)N[C@@H]1[C@H](O)[C@H](O[C@H]2/C=C/C=C/C=C/C=C/C=C/C=C/C=C/[C@H](C)[C@@H](O)[C@@H](C)[C@H](C)OC(=O)C[C@H](O)C[C@H](O)CC[C@@H](O)[C@H](O)C[C@H](O)C[C@]3(O)C[C@H](O)[C@@H](C(=O)N4CCN(C(C)(C)CO)CC4)[C@H](C2)O3)O[C@H](C)[C@H]1O
Outcome Measure: HC50 at 1 h
Measured: 50.7 µM

Query block: Value lookup for HC50 at 1 h; key = `CC(=O)NNC(=O)[C@H]1[C@@H]2C[C@@H](O[C@@H]3O[C@H](C)[C@@H](O)[C@H](NC(=O)CN)[C@@H]3O)/C=C/C=C/C=C/C=C/C=C/C=C/C=C/[C@H](C)[C@@H](O)[C@@H](C)[C@H](C)OC(=O)C[C@H](O)C[C@H](O)CC[C@@H](O)[C@H](O)C[C@H](O)C[C@](O)(C[C@@H]1O)O2`
Result block: 6 µM

Query block: Again, but for `C[C@@H]1[C@H](O)[C@@H](C)/C=C/C=C/C=C/C=C/C=C/C=C/C=C/[C@H](O[C@@H]2O[C@H](C)[C@@H](O)[C@H](NC(=O)CN)[C@@H]2O)C[C@@H]2O[C@](O)(C[C@@H](O)C[C@@H](O)[C@H](O)CC[C@@H](O)C[C@@H](O)CC(=O)O[C@H]1C)C[C@H](O)[C@H]2C(=O)NCCN`
Result block: 18.2 µM
